FYI, the data here is from paper PMC8699473.

So I've got a bunch of compounds here, and I need their Short-time stability (24h, 4°C, without daylight) Accuracy [%] values.
- assayName: Short-term stability in spiked pooled human plasma (bench-top, 4 °C, 56 °C)
- measurementParameters: validation standard 2xLLOV
Give bare numbers, in %.

>>> recordednumber("Cc1ccc(C(=O)Nc2ccc(CN3CCN(C)CC3)c(C(F)(F)F)c2)cc1C#Cc1cnc2cccnn12")
96.6
>>> recordednumber("Cn1cnc2c(F)c(Nc3ccc(Br)cc3F)c(C(=O)NOCCO)cc21")
105.5

Please give Short-time stability (24h, 4°C, without daylight) Accuracy [%], item by item, for the list that follows.
1. CN(C)C(=O)c1cc2cnc(Nc3ccc(N4CCNCC4)cn3)nc2n1C1CCCC1
2. COc1cc2c(Nc3ccc(Br)cc3F)ncnc2cc1OCC1CCN(C)CC1
3. CNC(=O)c1ccc(N2C(=S)N(c3cnc(C#N)c(C(F)(F)F)c3)C(=O)C23CCC3)cc1F [Apalutamide]
4. COC(=O)N[C@@H](C)CNc1nccc(-c2cn(C(C)C)nc2-c2cc(Cl)cc(NS(C)(=O)=O)c2F)n1

Out:
1. 98.0
2. 99.4
3. 93.0
4. 106.5

Consider the following items and state reported Short-time stability (24h, 4°C, without daylight) Accuracy [%] for each.
1. CCN(CC)CCNC(=O)c1c(C)[nH]c(/C=C2\C(=O)Nc3ccc(F)cc32)c1C
2. CO[C@@H]1[C@H](N(C)C(=O)c2ccccc2)C[C@H]2O[C@]1(C)n1c3ccccc3c3c4c(c5c6ccccc6n2c5c31)C(=O)NC4

Out:
1: 105.9; 2: 93.5
